Each recorded value in this set is attributed to patent US20260078103A1.

Quick reference for IC50 among some compounds
Test system: phosphorylation of AKT (pAKT) in T47D cells expressing mutant PI3Ka (H1047R)
test: In vitro cell pAKT (Ser473) HTRF, T47D cells
Assay type: cell-based
conditions-used: cellular pAKT, T47D cells, mutant PI3Ka (H1047R), 6 hours; read-out: Avg T-47D IC50

compound | target | IC50
Cc1cc(C(C)Nc2ccccc2C(=O)O)c2cc(N3CCC4(CCN(CC(F)(F)F)CC4)CC3)n(C)c(=O)c2c1 (single isomer, unassigned) [Example 110] | phosphorylation of AKT (pAKT) in T47D cells expressing mutant PI3Ka (H1047R) | > 15 µM
Cc1cc([C@@H](C)Nc2ccccc2C(=O)O)c2cc(N3CCN(CCC(F)(F)F)CC3)n(C)c(=O)c2c1 [Example 264] | phosphorylation of AKT (pAKT) in T47D cells expressing mutant PI3Ka (H1047R) | 0.001 to 0.5 µM
Cc1cc([C@@H](C)Nc2ccccc2C(=O)O)c2cc(C3C[C@H]3C)n(C)c(=O)c2c1 (single isomer, unassigned) [Example 313] | phosphorylation of AKT (pAKT) in T47D cells expressing mutant PI3Ka (H1047R) | 0.001 to 0.5 µM
Cc1cc(C(C)Nc2ccccc2C(=O)O)c2cc(N3CC4C(C3)C4C(F)(F)F)n(C)c(=O)c2c1 (stereo not drawn) [Example 191] | phosphorylation of AKT (pAKT) in T47D cells expressing mutant PI3Ka (H1047R) | 0.001 to 0.5 µM
COc1cccc(C#Cc2cc3c(C(C)Nc4ccccc4C(=O)O)cc(C)cc3c(=O)n2C)c1 (single isomer, unassigned) [Example 125] | phosphorylation of AKT (pAKT) in T47D cells expressing mutant PI3Ka (H1047R) | > 15 µM

Alright, here's another compound for you.
Field IC50 (entry Cc1cc(C(C)Nc2ccc(Cl)nc2C(=O)O)c2cc(C3=CCC(C)(C)CC3)n(C)c(=O)c2c1 (single isomer, unassigned) [Example 22] ) reads 2 to 15 µM

* * *

Tested on: phosphorylation of AKT (pAKT) in T47D cells expressing mutant PI3Ka (H1047R)
test: In vitro cell pAKT (Ser473) HTRF, T47D cells
Type: cell-based
conditions-used: Homo sapiens, T47D, 6 h, cellular pAKT, T47D cells, mutant PI3Ka (H1047R), 6 hours; read-out: Avg T-47D IC50
quantity-measured: IC50

compound | target | IC50
Cc1cc([C@@H](C)Nc2ccccc2C(=O)O)c2cc(N3CC(C)(c4ccccc4)C3)n(C)c(=O)c2c1 | phosphorylation of AKT (pAKT) in T47D cells expressing mutant PI3Ka (H1047R) | 1 to 500 nM
Cc1cc([C@@H](C)Nc2ccccc2C(=O)O)c2cc(-c3ncc(C(F)(F)F)cn3)n(C)c(=O)c2c1 | phosphorylation of AKT (pAKT) in T47D cells expressing mutant PI3Ka (H1047R) | 1 to 500 nM
Cc1cc([C@@H](C)Nc2ccccc2C(=O)O)c2cc(-c3cccc(C(F)F)n3)n(C)c(=O)c2c1 | phosphorylation of AKT (pAKT) in T47D cells expressing mutant PI3Ka (H1047R) | 1 to 500 nM
Cc1cc(C(C)Nc2ccccc2C(=O)O)c2cc(-c3cc4cc(F)ccc4[nH]3)n(C)c(=O)c2c1 (stereo not drawn) | phosphorylation of AKT (pAKT) in T47D cells expressing mutant PI3Ka (H1047R) | 500 to 2000 nM
C[C@@H](Nc1ccccc1C(=O)O)c1cc(F)cc2c(=O)n(C)c(-c3cnc(OC4CC4)c(F)c3)cc12 | phosphorylation of AKT (pAKT) in T47D cells expressing mutant PI3Ka (H1047R) | 1 to 500 nM
C[C@@H](Nc1ccccc1C(=O)O)c1cc(F)cc2c(=O)n(C)c(C34CC(CC(F)(F)F)(C3)C4)cc12 | phosphorylation of AKT (pAKT) in T47D cells expressing mutant PI3Ka (H1047R) | 1 to 500 nM
C[C@@H](Nc1ccccc1C(=O)O)c1cc(F)cc2c(=O)n(C)c(-c3cnc(-c4ccc(F)cn4)c(F)c3)cc12 | phosphorylation of AKT (pAKT) in T47D cells expressing mutant PI3Ka (H1047R) | 1 to 500 nM
Cc1cc([C@@H](C)Nc2ccccc2C(=O)O)c2cc(-c3ccc(C(C)C)nc3)n(C)c(=O)c2c1 | phosphorylation of AKT (pAKT) in T47D cells expressing mutant PI3Ka (H1047R) | 1 to 500 nM
CC(=O)N1CCN(c2cc3c([C@@H](C)Nc4ccccc4C(=O)O)cc(C)cc3c(=O)n2C)CC1 | phosphorylation of AKT (pAKT) in T47D cells expressing mutant PI3Ka (H1047R) | 500 to 2000 nM
Cc1cc(C(C)Nc2ccccc2C(=O)O)c2cc(N3CCC4(CCC4)CC3)n(C)c(=O)c2c1 (stereo not drawn) | phosphorylation of AKT (pAKT) in T47D cells expressing mutant PI3Ka (H1047R) | 1 to 500 nM

Field IC50 (phosphorylation of AKT (pAKT) in T47D cells expressing mutant PI3Ka (H1047R)), entry Cc1cc(C(C)Nc2ccccc2C(=O)O)c2cc(N3CCc4ncncc4C3)n(C)c(=O)c2c1 (stereo not drawn) : 500 to 2000 nM

Field IC50 (phosphorylation of AKT (pAKT) in T47D cells expressing mutant PI3Ka (H1047R)), entry `Cc1cc([C@@H](C)Nc2ccccc2C(=O)O)c2cc(N3CCN(c4ncn(C)n4)CC3)n(C)c(=O)c2c1` : 500 to 2000 nM

Field IC50 (phosphorylation of AKT (pAKT) in T47D cells expressing mutant PI3Ka (H1047R)), entry CC(=O)N1C[C@@H]2CN(c3cc4c(C(C)Nc5ccccc5C(=O)O)cc(C)cc4c(=O)n3C)C[C@H]2C1 (stereo partly drawn) : 2000 to 15000 nM

Field IC50 (phosphorylation of AKT (pAKT) in T47D cells expressing mutant PI3Ka (H1047R)), entry `Cc1cc([C@@H](C)Nc2ccccc2C(=O)O)c2cc(N3CCN(OC(C)C)CC3)n(C)c(=O)c2c1` : 1 to 500 nM

Field IC50 (phosphorylation of AKT (pAKT) in T47D cells expressing mutant PI3Ka (H1047R)), entry `Cc1cc([C@@H](C)Nc2ccccc2C(=O)O)c2cc(-c3cnc(CF)cn3)n(C)c(=O)c2c1` : 1 to 500 nM

* * *

System: T47D cells expressing mutant PI3Ka (H1047R)
test: In vitro cell proliferation, T47D cells (CellTiter-Glo)
Type: cell-based
conditions-used: inhibition of proliferation, 72 hours, read-out: Avg T-47D EC50
pEC50: −log10 of the molar value.
Quick reference for pEC50 among some compounds

compound | target | pEC50
COc1cccc(C#Cc2cc3c(C(C)Nc4ccccc4C(=O)O)cc(C)cc3c(=O)n2C)c1 (single isomer, unassigned) [Example 125] | T47D cells expressing mutant PI3Ka (H1047R) | 4.82 to 5.70
CCOc1ccc(-c2cc3c(C(C)Nc4ccccc4C(=O)O)cc(C)cc3c(=O)n2C)cn1 (single isomer, unassigned) [Example 132] | T47D cells expressing mutant PI3Ka (H1047R) | 6.30 to 9.00
Cc1cc(C(C)Nc2ccccc2C(=O)O)c2cc(N3CCN4CC(F)(F)CC4C3)n(C)c(=O)c2c1 (single isomer, unassigned) [Example 122] | T47D cells expressing mutant PI3Ka (H1047R) | 4.82 to 5.70
Cc1cc(C(C)Nc2ccccc2C(=O)O)c2cc(N3CC4C(C3)C4C(F)(F)F)n(C)c(=O)c2c1 (stereo not shown) | T47D cells expressing mutant PI3Ka (H1047R) | 5.70 to 6.30
COc1ncccc1N1CCN(c2cc3c([C@@H](C)Nc4ccccc4C(=O)O)cc(C)cc3c(=O)n2C)CC1 | T47D cells expressing mutant PI3Ka (H1047R) | 6.30 to 9.00

Field pEC50 (T47D cells expressing mutant PI3Ka (H1047R)), entry Cc1cc(C(C)Nc2ccccc2C(=O)O)c2cc(N3CC4(CCN(CC(F)(F)F)C4)C3)n(C)c(=O)c2c1 (stereo not shown) : 5.70 to 6.30

Field pEC50 (T47D cells expressing mutant PI3Ka (H1047R)), entry C[C@@H](Nc1cccc(F)c1C(=O)O)c1cc(F)cc2c(=O)n(C)c(C3C[C@@H]3C3CC3)cc12 (single isomer, unassigned) [Example 425] : 5.70 to 6.30

Field pEC50 (T47D cells expressing mutant PI3Ka (H1047R)), entry Cc1ccc(-c2ncc(-c3cc4c(C(C)Nc5ccccc5C(=O)O)cc(F)cc4c(=O)n3C)cc2F)cn1 (stereo not shown) : 6.30 to 9.00

Field pEC50 (T47D cells expressing mutant PI3Ka (H1047R)), entry Cc1cc(C(C)Nc2ccccc2C(=O)O)c2cc(N3C[C@H]4CN(CC(F)(F)F)C[C@H]4C3)n(C)c(=O)c2c1 (single isomer, unassigned) [Example 31] : 6.30 to 9.00

Field pEC50 (T47D cells expressing mutant PI3Ka (H1047R)), entry `Cc1cc([C@@H](C)Nc2ccc(F)cc2C(=O)O)c2cc(-c3cnc(C(C)(C)F)c(F)c3)n(C)c(=O)c2c1` : 6.30 to 9.00

Field pEC50 (T47D cells expressing mutant PI3Ka (H1047R)), entry Cc1cc(C(C)Nc2ccccc2C(=O)O)c2cc(N3CCN4C(=O)OC[C@H]4C3)n(C)c(=O)c2c1 (single isomer, unassigned) [Example 142] : 5.70 to 6.30

Field pEC50 (T47D cells expressing mutant PI3Ka (H1047R)), entry C[C@@H](Nc1cccc(F)c1C(=O)O)c1cc(F)cc2c(=O)n(C)c(C3C[C@@H]3C(F)(F)F)cc12 (single isomer, unassigned) : 5.70 to 6.30

Field pEC50 (T47D cells expressing mutant PI3Ka (H1047R)), entry `Cc1cc([C@@H](C)Nc2ccccc2C(=O)O)c2cc(N3CCn4c(cnc4C(F)(F)F)C3)n(C)c(=O)c2c1` : 5.70 to 6.30
